Target: Prothrombin (Bos taurus)
Experiment: Bovine thrombin concentration at which clotting time was prolonged 2x over the control.
Type: functional
Conditions: read-out: I50
measuredAttribute: IC50

INSERT INTO results (compound, measuredattribute, result) VALUES
  ('CCNC(=O)C(CCCN=C(N)N)NS(=O)(=O)c1cccc2c(N(C)C)cccc12 (centres undefined)', 'IC50', '100000 nM'),
  ('CCC1CCN(C(=O)C(CCCN=C(N)N)NS(=O)(=O)c2cccc3c2CCCC3)CC1 (centres undefined)', 'IC50', '500 nM'),
  ('CCCCNC(=O)C(CCCNC(=N)N)NS(=O)(=O)c1cccc2ccccc12 (centres undefined)', 'IC50', '50000 nM'),
  ('COCCNC(=O)C(CCCN=C(N)N)NS(=O)(=O)c1cccc2c1CCCC2 (centres undefined)', 'IC50', '40000 nM'),
  ('CCCCN(C)C(=O)C(CCCNC(=N)N)NS(=O)(=O)c1cccc2c(N(C)C)cccc12 (centres undefined)', 'IC50', '2000 nM'),
  ('CCC1CCN(C(=O)C(CCCN=C(N)N)NS(=O)(=O)c2cccc3c(Cl)cccc23)CC1 (centres undefined)', 'IC50', '2000 nM'),
  ('CCCCN(CC)C(=O)C(CCCN=C(N)N)NS(=O)(=O)c1cccc2c(N(C)C)cccc12 (centres undefined)', 'IC50', '50000 nM'),
  ('CCCCNC(=O)C(CCCN=C(N)N)NS(=O)(=O)c1ccc2c(c1)CCCC2 (centres undefined)', 'IC50', '5000 nM'),
  ('CCC1CCN(C(=O)C(CCCNC(=N)N)NS(=O)(=O)c2cc(OC)c3cc(OC)ccc3c2)CC1 (centres undefined)', 'IC50', '100 nM'),
  ('CC(=O)N1CCN(C(=O)C(CCCN=C(N)N)NS(=O)(=O)c2cccc3c(N(C)C)cccc23)CC1 (centres undefined)', 'IC50', '3500 nM'),
  ('CCC1CCN(C(=O)C(CCCN=C(N)N)NS(=O)(=O)c2ccc3ccccc3c2)CC1 (centres undefined)', 'IC50', '1000 nM'),
  ('CN(C)c1cccc2c(S(=O)(=O)NC(CCCNC(=N)N)C(=O)N3CCSCC3)cccc12 (centres undefined)', 'IC50', '2000 nM'),
  ('COc1ccc(CNC(=O)C(CCCN=C(N)N)NS(=O)(=O)c2cccc3c(N(C)C)cccc23)cc1 (centres undefined)', 'IC50', '500000 nM'),
  ('CCC1CCN(C(=O)C(CCCNC(=N)N)NS(=O)(=O)c2ccc3cc(OC)ccc3c2)CC1 (centres undefined)', 'IC50', '200 nM'),
  ('CCCOc1cccc2c(S(=O)(=O)NC(CCCNC(=N)N)C(=O)N3CCC(CC)CC3)cccc12 (centres undefined)', 'IC50', '500 nM'),
  ('N=C(N)NCCCC(NS(=O)(=O)c1ccc2ccccc2c1)C(=O)N1CCCCCC1 (centres undefined)', 'IC50', '20000 nM'),
  ('CN(C)c1cccc2c(S(=O)(=O)NC(CCCNC(=N)N)C(=O)NCC3CCCCC3)cccc12 (centres undefined)', 'IC50', '40000 nM'),
  ('CCC1CCN(C(=O)C(CCCNC(=N)N)NS(=O)(=O)c2cccc3ccccc23)CC1 (centres undefined)', 'IC50', '1000 nM'),
  ('CCC1CCN(C(=O)C(CCCNC(=N)N)NS(=O)(=O)c2ccc3c(c2)Cc2ccccc2O3)CC1 (centres undefined)', 'IC50', '300 nM');

The measurements presented in this section are drawn from ChEMBL document CHEMBL1121484.
